test_name: chemical genetic growth profiling, strain panel (AID 1159580);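 also: tested at 20 µM; growth read once vehicle control cultures reached saturation at 30 °C; 1 = growth at the plate median or of vehicle wells; lower values mean less growth of the strain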
test_settings: S. cerevisiae deletion strains, growth OD, locus YDR195W, strain ref2
The campaign covered roughly 5,500 compounds. About 2,000 (36%) were called active. Inconclusive results (about 18%) are left out. Rule as the data show it: active = normalized growth mostly below about 0.91 (no sharp cut-off); inconclusive = no clear call, values can overlap the other calls; inactive = mostly above about 0.92. Some of the results follow.
Could you please pick one outcome from this set? active, inactive

## Input Look up the recorded call for C=C(C)[C@H]1Cc2c(ccc3c2O[C@@H]2COc4cc(OC)c(OC)cc4[C@@H]2C3=O)O1 in this test.
## Output inactive

## Input Look up the recorded call for NC(=O)N1c2ccccc2C=Cc2ccccc21 in this test.
## Output inactive

## Input Look up the recorded call for CC1=NN(c2ccccc2)C(=O)C1 in this test.
## Output inactive

## Input Look up the recorded call for CC(NCCC(c1ccccc1)c1ccccc1)c1ccccc1 (stereo unspecified) in this test.
## Output active

## Input Look up the recorded call for CNCC[C@@H](Oc1ccccc1)c1ccccc1 in this test.
## Output inactive

## Input Look up the recorded call for COc1cc2cc3c4cc(OC)c(OC)cc4cc[n+]3c(C)c2cc1OC in this test.
## Output inactive

## Input Look up the recorded call for OCCN1CCN(CCCN2c3ccccc3Sc3ccc(C(F)(F)F)cc32)CC1 in this test.
## Output active

## Input Look up the recorded call for CO[C@@]1(NC(=O)Cc2cccs2)C(=O)N2C(C(=O)O)=C(COC(N)=O)CS[C@@H]21 in this test.
## Output inactive

## Input Look up the recorded call for CN1CCN(CCCN2c3ccccc3Sc3ccc(C(F)(F)F)cc32)CC1 in this test.
## Output active

## Input Look up the recorded call for O=c1oc2c(O)c(O)cc3c(=O)oc4c(O)c(O)cc1c4c23 in this test.
## Output inactive

## Input Look up the recorded call for CC(=O)OCC(=O)[C@@]1(O)CCC2C3CCC4=CC(=O)CC[C@]4(C)C3[C@@H](O)C[C@@]21C (stereo partly specified) in this test.
## Output inactive

----------
test_name: chemical genetic growth profiling, strain panel (AID 1159580);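 also: tested at 20 µM; growth read once vehicle control cultures reached saturation at 30 °C; 1 = growth at the plate median or of vehicle wells; lower values mean less growth of the strain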
test_settings: S. cerevisiae deletion strains, growth OD, locus YPL209C, strain IPL1
The campaign covered roughly 5,500 compounds. About 2,000 (36%) were called active. Another 18% or so got no clear call; they are omitted. No stated cut-off is given here; in the data, active means normalized growth mostly below about 0.91 (no sharp cut-off); inconclusive means no clear call, values can overlap the other calls; inactive means mostly above about 0.92. The list shows a part of the results.
Could you please pick one outcome from this set? active, inactive

## Input Look up the recorded call for CC(=O)c1ccccc1C(=O)c1ccc(C(C)(C)C)cc1 in this test.
## Output inactive

## Input Look up the recorded call for O=C(Nc1cc2c(s1)-c1cc(Cl)ccc1SC2)Oc1ccccc1 in this test.
## Output inactive

## Input Look up the recorded call for FC(F)(F)c1cc(-c2ccc(Cl)cc2)n[nH]1 in this test.
## Output inactive

## Input Look up the recorded call for S=C(N/N=C\c1cccs1)NC1CC2CCC1C2 (centres undefined) in this test.
## Output inactive

## Input Look up the recorded call for S=C(Nc1ccc(Cl)cc1)Nc1ccc(Cl)cc1 in this test.
## Output inactive

## Input Look up the recorded call for OC(CSc1ccccc1)CN1CCN(c2nc(-c3ccccc3)ns2)CC1 (centres undefined) in this test.
## Output inactive

## Input Look up the recorded call for O=C(c1cc2c(s1)-c1ccccc1CC2)N1CCN(Cc2ccccc2)CC1 in this test.
## Output inactive

## Input Look up the recorded call for Cc1ccc2nc(-c3ccc([N+](=O)[O-])o3)oc(=O)c2c1 in this test.
## Output active

## Input Look up the recorded call for Cc1ccc(OCc2n[nH]c(=S)n2Cc2ccccc2)c2c1CCC2 in this test.
## Output inactive

## Input Look up the recorded call for CN1c2ccccc2C(C)(C)C12C=Cc1cc(O)ccc1O2 (centres undefined) in this test.
## Output inactive

## Input Look up the recorded call for Clc1ccc(N/N=C\c2sccc2Oc2ccccc2)cc1 in this test.
## Output inactive

## Input Look up the recorded call for O=C(NNC(=S)Nc1ccc(Cl)cc1)c1ncc(C(F)(F)F)cc1Cl in this test.
## Output inactive

## Input Look up the recorded call for N#C/C(=N/Nc1cccc(C(F)(F)F)c1)C(=O)c1csc(-c2cccnc2)n1 in this test.
## Output inactive

## Input Look up the recorded call for COc1ccc(C2CC(c3ccc(C)cc3C)=NN2C(C)=O)cc1 (centres undefined) in this test.
## Output inactive

----------
test_name: chemical genetic growth profiling, strain panel (AID 1159580);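 also: tested at 20 µM; growth read once vehicle control cultures reached saturation at 30 °C; 1 = growth at the plate median or of vehicle wells; lower values mean less growth of the strain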
test_settings: S. cerevisiae deletion strains, growth OD, locus YHR079C, strain IRE1 (second series), hits give low values
Screen size: about 5,500 compounds; about 2,000 (36%) were called active. Not shown: some 18% with an inconclusive outcome. Some of the results follow.
For each entry below, report its normalized growth value.
Please reply with the number alone, leaving off any unit.

Entry COC(=O)[C@]1(C)CC[C@]2(C)CC[C@]3(C)C4=CC=C5C(=CC(=O)C(O)=C5C)[C@]4(C)CC[C@@]3(C)[C@@H]2C1 — recorded normalized growth = 0.977

Entry O=C(O)c1cc(=O)c2cccc(O)c2[nH]1 — recorded normalized growth = 0.985

Entry CC1=NN(c2ccccc2)C(=O)C1 — recorded normalized growth = 0.981

Entry C=C(C)[C@@H]1CC[C@]2(CO)CC[C@]3(C)[C@H](CCC4[C@@]5(C)CC[C@H](O)C(C)(C)C5CC[C@]43C)C12 (stereo partly drawn) — recorded normalized growth = 0.992

Entry O=C(O)c1cc(=O)c2c(Cl)cc(Cl)cc2[nH]1 — recorded normalized growth = 1.01

Entry COc1cc(NS(=O)(=O)c2ccc(N)cc2)ncn1 — recorded normalized growth = 0.99

Entry CC(=O)Oc1cc2c(c(C)c1OC(C)=O)CC1OC13C2(C)CCC1(C)C2CC(C)(C(=O)O)CCC2(C)CCC13C (stereo not drawn) — recorded normalized growth = 1.04

Entry CCCCCCCCCCCCCCCCCCOCC(O)CO (stereo not drawn) — recorded normalized growth = 1

----------
test_name: chemical genetic growth profiling, strain panel (AID 1159580);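 also: tested at 20 µM; growth read once vehicle control cultures reached saturation at 30 °C; 1 = growth at the plate median or of vehicle wells; lower values mean less growth of the strain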
test_settings: S. cerevisiae deletion strains, growth OD, locus YPR141C, strain kar3, hits give low values
The whole screen tested about 5,500 compounds, of which about 2,000 (36%) were called active. Roughly 18% stayed inconclusive and do not appear here. This is one part of the list.
quantity_name: normalized growth
Please reply with the number alone, leaving off any unit.

Entry CCOc1cccc(C(=O)c2ccc(O)c(O)c2O)c1 — recorded normalized growth = 0.963

Entry COc1cnc(NS(=O)(=O)c2ccc(N)cc2)nc1 — recorded normalized growth = 0.96

Entry COc1cc(NS(=O)(=O)c2ccc(N)cc2)ncn1 — recorded normalized growth = 0.97

Entry CC(=O)OCC(=O)[C@@]12OC3(CCCC3)O[C@@H]1CC1C3CCC4=CC(=O)C=C[C@]4(C)[C@@]3(F)[C@@H](O)C[C@@]12C (stereo partly drawn) — recorded normalized growth = 0.989

Entry CN1CCN(CC(=O)N2c3ccccc3C(=O)Nc3cccnc32)CC1 — recorded normalized growth = 1.02

Entry O=C1c2ccccc2C(=O)C1c1ccccc1 — recorded normalized growth = 0.987

Entry C#CC1(O)CCC2C3CCC4=CC(=O)CCC4(C)C3CCC21C (stereo not drawn) — recorded normalized growth = 0.982

Entry COc1cc2cc3c4cc(OC)c(OC)cc4cc[n+]3c(C)c2cc1OC — recorded normalized growth = 1.01

Entry OC(c1cc(C(F)(F)F)nc2c(C(F)(F)F)cccc12)C1CCCCN1 (stereo not drawn) — recorded normalized growth = 0.988

Entry NCCc1c[nH]c2ccccc12 — recorded normalized growth = 0.983

Entry CC(=O)[C@@]1(O)CCC2C3CCC4=CC(=O)CC[C@]4(C)C3CC[C@@]21C (stereo partly drawn) — recorded normalized growth = 0.992

Entry COc1c2occc2c(OC)c2c(=O)cc(C)oc12 — recorded normalized growth = 1.01

Entry COC(=O)[C@]1(C)CC[C@]2(C)CC[C@]3(C)C4=CC=C5C(=CC(=O)C(O)=C5C)[C@]4(C)CC[C@@]3(C)[C@@H]2C1 — recorded normalized growth = 0.943

Entry COc1ccc2c(c1OC)OC[C@@H](c1ccc(OC)c(OC)c1OC)C2 — recorded normalized growth = 1.02

Entry COc1cc2c(cc1O)CCNC2C (stereo not drawn) — recorded normalized growth = 0.968

Entry O=c1c(O)c(-c2ccc(O)c(O)c2)oc2cc(O)ccc12 — recorded normalized growth = 0.978

Entry CN(C)CCc1c[nH]c2ccc(CS(=O)(=O)N3CCCC3)cc12 — recorded normalized growth = 0.983

Entry CCCCCCCCCCCCCCCCCCOCC(O)CO (stereo not drawn) — recorded normalized growth = 1

Entry CC(=O)Oc1cccc2c1C(=O)c1c(OC(C)=O)cc(C(=O)O)cc1C2=O — recorded normalized growth = 0.997

Entry NC1CC1c1ccccc1 (stereo not drawn) — recorded normalized growth = 0.99

Entry CC(=O)[O][Hg][c]1ccccc1 — recorded normalized growth = 0.0673

Entry CC(=O)Oc1cc2c(c(C)c1OC(C)=O)CC1OC13C2(C)CCC1(C)C2CC(C)(C(=O)O)CCC2(C)CCC13C (stereo not drawn) — recorded normalized growth = 1.02

Entry CC(=O)c1cc2c(cc1O)OC(C)(C)C=C2 — recorded normalized growth = 0.962

Entry COc1cc(/C=C/C=O)cc(OC)c1OC — recorded normalized growth = 1

Entry CNC(Cc1c[nH]c2ccccc12)C(=O)O (stereo not drawn) — recorded normalized growth = 0.986

Entry O=c1[nH]cnc2c1ncn2C1O[C@H](CO)[C@@H](O)[C@H]1O (stereo partly drawn) — recorded normalized growth = 1.03

Entry NC[C@H]1O[C@H](O[C@H]2C(O[C@@H]3O[C@H](CO)[C@@H](O)[C@H]3O)[C@@H](O)[C@H](N)C[C@@H]2N)[C@H](N)[C@@H](O)[C@@H]1O (stereo partly drawn) — recorded normalized growth = 0.978

Entry C[C@]12CCC(=O)C=C1CCC1C2[C@@H](O)C[C@@]2(C)C1CC[C@]2(O)C(=O)COC(=O)CCC(=O)O (stereo partly drawn) — recorded normalized growth = 1.01

Entry CO[C@H]1C[C@H](O[C@H]2[C@H](C)[C@@H](OC3O[C@H](C)C[C@H](N(C)C)[C@H]3OC(C)=O)[C@@H](C)C[C@]3(CO3)C(=O)[C@H](C)[C@@H](OC(C)=O)[C@@H](C)[C@@H](C)OC(=O)[C@@H]2C)O[C@@H](C)[C@@H]1OC(C)=O (stereo partly drawn) — recorded normalized growth = 0.984

Entry CC[C@H]1CN2CCc3cc(OC)c(OC)cc3C2C[C@@H]1CC1NCCc2cc(OC)c(OC)cc21 (stereo partly drawn) — recorded normalized growth = 1

Entry CCc1cccc2c3c([nH]c12)C(CC)(CC(=O)O)OCC3 (stereo not drawn) — recorded normalized growth = 1

Entry CC1=CC2C(C(C)C)CCC(C)(O)C2CC1 (stereo not drawn) — recorded normalized growth = 0.97

Entry COc1ccc2c(=O)ccoc2c1 — recorded normalized growth = 1.01

Entry CC(=O)OCC(=O)[C@@]1(O)CCC2C3CCC4=CC(=O)CC[C@]4(C)C3[C@@H](O)C[C@@]21C (stereo partly drawn) — recorded normalized growth = 1.01

Entry CC(=O)Oc1cccc(C(=O)O)c1OC(C)=O — recorded normalized growth = 1

Entry NC[C@H]1O[C@H](O[C@H]2[C@H](O)[C@@H](O[C@H]3O[C@H](CO)[C@@H](O)[C@H](N)[C@H]3O)[C@H](N)C[C@@H]2N)[C@H](N)C[C@@H]1O — recorded normalized growth = 1.01

Entry O=C(O)c1cc(=O)c2cccc(O)c2[nH]1 — recorded normalized growth = 0.97

Entry c1ccc([C@H]2CN3CCSC3=N2)cc1 — recorded normalized growth = 0.999

Entry COc1cccc(O)c1O — recorded normalized growth = 1.01

Entry CCCCc1nc(Cl)c(CO)n1Cc1ccc(-c2ccccc2-c2nn[nH]n2)cc1 — recorded normalized growth = 1

Entry CC1(C)C=Cc2cc3ccc(=O)oc3cc2O1 — recorded normalized growth = 0.957

Entry NC1C[C@H]1c1ccccc1 (stereo partly drawn) — recorded normalized growth = 0.981

Entry COc1c2ccoc2cc2oc(C)cc(=O)c12 — recorded normalized growth = 0.984
